assay_overview: Inhibition of mTOR2 in human A2058 cells assessed as reduction in PKB/Akt phosphorylation at Ser473 incubated for 1 hr by Western blot analysis
Assay type: cell-based
condition_set: A2058, 1 h
Assign pIC50 to each entry below.
Please report pIC50 as the negative decimal logarithm of the molar concentration, giving only the number.

Sample "CC[C@@H]1COCCN1c1nc(-c2cnc(N)cc2C(F)F)nc(N2CCOC[C@H]2C)n1" ; pIC50 observed: 6.64

Sample "C[C@@H]1COCCN1c1nc(-c2cnc(N)cc2C(F)F)nc(N2[C@@H](C)COC[C@@H]2C)n1" ; pIC50 observed: 6.70

Sample "COC[C@@H]1COCCN1c1nc(-c2cnc(N)cc2C(F)F)nc(N2CCOC[C@H]2C)n1" ; pIC50 observed: 6.02

Sample "C[C@@H]1COCCN1c1nc(-c2cnc(N)cc2C(F)F)nc(N2[C@H](C)COC[C@H]2C)n1" ; pIC50 observed: 6.30

Sample "CC[C@H]1COCCN1c1nc(-c2cnc(N)cc2C(F)F)nc(N2CCOC[C@H]2C)n1" ; pIC50 observed: 6.61
